Test system: ATXN2-luc
protocol details: MSSR pilot screen: ATXN2-luc luciferase assay (Bright-Glo) in H2 cells, single 10 μM dose
Format: cell-based, human
condition parameters: pilot screen; absolute score divided by 1SD (0.891 or 0.9)
Tick Condition met if ¦Score/1SD¦ is 4 or greater. Tick Condition not met if ¦Score/1SD¦ is less than 4.

[[record]]
compound = "C[C@@H]1O[C@@H](O[C@@H]2C=C3CC[C@@H]4[C@H](CC[C@]5(C)[C@@H](c6ccc(=O)oc6)CC[C@]45O)[C@@]3(C)CC2)[C@H](O)[C@H](O)[C@H]1O"
discrete_label = "Condition met"

[[record]]
compound = "CO[C@H]1[C@H](O)[C@H](O[C@H]2CC[C@@]3(C=O)[C@H](CC[C@@H]4[C@@H]3CC[C@]3(C)[C@@H](C5=CC(=O)OC5)CC[C@]43O)C2)O[C@@H](C)[C@@H]1O [PERUVOSIDE]"
discrete_label = "Condition met"

[[record]]
compound = "CO[C@H]1C[C@H](O[C@H]2CC[C@]3(C=O)[C@H]4CC[C@]5(C)[C@@H](C6=CC(=O)OC6)CC[C@]5(O)[C@@H]4CC[C@]3(O)C2)O[C@H](C)[C@H]1O"
discrete_label = "Condition met"

[[record]]
compound = "CC[C@H]1CN2CCc3cc(OC)c(OC)cc3[C@@H]2C[C@@H]1C[C@H]1NCCc2cc(O)c(OC)cc21.Cl.Cl.O.O.O.O.O.O.O [Cephaeline dihydrochloride heptahydrate]"
discrete_label = "Condition met"

[[record]]
compound = "CC(N/C(=N\\C#N)Nc1ccncc1)C(C)(C)C (stereo not drawn)"
discrete_label = "Condition met"


Challenge: Given the entry "CO[C@H]1C[C@H](O[C@H]2CC[C@]3(C)[C@H]4CC[C@]5(C)[C@@H](C6=CC(=O)OC6)CC[C@]5(O)[C@@H]4CC[C@]3(O)C2)O[C@H](C)[C@H]1O" , answer whether its ¦Score/1SD¦ meets or surpasses 4.
Response given: Condition not met

Challenge: Given the entry "C[C@H]1O[C@@H](O[C@H]2[C@@H](O)C[C@H](O[C@H]3[C@@H](O)C[C@H](O[C@H]4CC[C@@]5(C)[C@H](CC[C@@H]6[C@@H]5CC[C@]5(C)[C@@H](C7=CC(=O)OC7)CC[C@]65O)C4)O[C@@H]3C)O[C@@H]2C)C[C@H](O)[C@@H]1O" , answer whether its ¦Score/1SD¦ meets or surpasses 4.
Response given: Condition met

Challenge: Given the entry COc1ccc(CN2CCN(C(c3ccc(F)cc3)c3ccc(F)cc3)CC2)c(OC)c1OC [LOMERIZINE DiHCl] , answer whether its ¦Score/1SD¦ meets or surpasses 4.
Response given: Condition not met

----------
Readings of viability at 1 µM for the listed compounds
Tested on: H2 and S1 cells
protocol details: Paired MTT viability assay, average of H2 and S1 cells (1 and 10 uM)
Format: cell-based, human
condition parameters: Homo sapiens, read-out: H2&S1 ave MTT 1uM, 1 uM compound
Numeric answer only, unit % assumed.

Worked examples follow.
[[record]]
compound = "CC(=O)O[C@H]1CC[C@@]2(C)[C@H](CC[C@@H]3[C@@H]2CC[C@]2(C)[C@@H](C4=CC(=O)OC4)[C@@H](OC(C)=O)C[C@]32O)C1 [GITOXIGENIN DIACETATE]"
unit_tag = "%"
obs_value = 39.7

[[record]]
compound = "C[C@]12CC[C@H]3[C@@H](CC[C@]4(O)C[C@@H](O)CC[C@]34C=O)[C@@]1(O)CC[C@@H]2C1=CC(=O)OC1 [STROPHANTHIDIN]"
unit_tag = "%"
obs_value = 40.1

[[record]]
compound = "CNC1CC(c2ccc(Cl)c(Cl)c2)c2ccccc21 (stereo not shown) [Indatraline]"
unit_tag = "%"
obs_value = 117

[[record]]
compound = "COc1cccc(C2(O)CCCCC2CN(C)C)c1 (stereo not shown) [Tramadol]"
unit_tag = "%"
obs_value = 128

[[record]]
compound = "C[n+]1cc2c3c(ccc2c2ccc4cc5c(cc4c21)OCO5)OCO3 [Sanguinarine]"
unit_tag = "%"
obs_value = 103

[[record]]
compound = "C[C@@H]1O[C@@H](O[C@@H]2C=C3CC[C@@H]4[C@H](CC[C@]5(C)[C@@H](c6ccc(=O)oc6)CC[C@]45O)[C@@]3(C)CC2)[C@H](O)[C@H](O)[C@H]1O [Proscillaridin A]"
unit_tag = "%"
obs_value = 47.8


Challenge: Please give the measured viability at 1 µM for this compound: CCCCCCCCCOc1ccc2[nH]cc(CCN)c2c1 [5-Nonyloxytryptamine]
Response given: 114

----------
Readings of Inf Activity for the listed compounds
Tested on: ATXN2-luc
protocol details: NCATS qHTS (LOPAC pilot, primary and confirmation): ATXN2-luc in S2 cells, 1536-well, Steady-Glo
Type: cell-based, human
condition parameters: LOPAC library screening optimization; curve-fit parameter
Just the number, please, no unit after it.

[[record]]
compound = "Nc1nc(=S)c2ncn([C@@H]3O[C@H](CO)[C@@H](O)[C@H]3O)c2[nH]1"
measurement_target = "ATXN2-luc"
measured_metric = "Inf Activity"
obs_value = -62.8466


Kindly review the next compound as well.
Challenge: Please give the measured Inf Activity for this compound: CC(=O)O[C@H]1C[C@H](O[C@H]2[C@@H](O)C[C@H](O[C@H]3[C@@H](O)C[C@H](OC4CC[C@@]5(C)C(CC[C@@H]6[C@@H]5CC[C@]5(C)[C@@H](C7=CC(=O)OC7)[C@@H](O)C[C@]65O)C4)O[C@@H]3C)O[C@@H]2C)O[C@H](C)[C@H]1O[C@@H]1O[C@H](CO)[C@@H](O)[C@H](O)[C@H]1O (some centres unmarked) [Lanatoside B]
Response given: -90.3741

----------
Test system: ATXN2-luc
protocol details: MSSR pilot screen: ATXN2-luc luciferase assay (Bright-Glo) in H2 cells, single 10 μM dose
Format: cell-based, human
condition parameters: pilot screen
Structures can show the parent of a compound that is named as a salt.
measured metric: SD from mean (pilot screen)
Reply with the number and its unit after it.

[[record]]
compound = "C[C@]12CC[C@H](O)C[C@H]1CC[C@@H]1[C@@H]2[C@H](O)C[C@]2(C)[C@@H](C3=CC(=O)OC3)CC[C@]12O"
measured_metric = "SD from mean (pilot screen)"
obs_value = "-3.539 SD"

[[record]]
compound = "CNC1CC(c2ccc(Cl)c(Cl)c2)c2ccccc21 (stereo not shown)"
measured_metric = "SD from mean (pilot screen)"
obs_value = "-3.071 SD"

[[record]]
compound = "CCN(CC)CCCCCCCCOC(=O)c1cc(OC)c(OC)c(OC)c1"
measured_metric = "SD from mean (pilot screen)"
obs_value = "-5.740 SD"

[[record]]
compound = "COc1ccc(CCCOC(Cn2ccnc2)c2ccc(OC)cc2)cc1 (stereo not shown)"
measured_metric = "SD from mean (pilot screen)"
obs_value = "-2.721 SD"

[[record]]
compound = "CO[C@H]1[C@@H](O)[C@@H](C)O[C@@H](O[C@H]2CC[C@]3(C)[C@H]4CC[C@]5(C)[C@@H](C6=CC(=O)OC6)CC[C@]5(O)[C@@H]4CC[C@]3(O)C2)[C@@H]1O"
measured_metric = "SD from mean (pilot screen)"
obs_value = "-3.080 SD"

[[record]]
compound = "CC[C@H]1CN2CCc3cc(OC)c(OC)cc3[C@@H]2C[C@@H]1C[C@H]1NCCc2cc(OC)c(OC)cc21 [Emetine dihydrochloride]"
measured_metric = "SD from mean (pilot screen)"
obs_value = "-4.840 SD"


Kindly review the next compound as well.
Challenge: Please give the measured SD from mean (pilot screen) for this compound: "C[C@]12CC[C@H](O)C[C@H]1CC[C@@H]1[C@@H]2C[C@@H](O)[C@]2(C)[C@@H](C3=CC(=O)OC3)CC[C@]12O"
Response given: -3.264 SD

----------
Readings of H2&S1 ave luc 1uM for the listed compounds
System: ATXN2-luc
protocol details: MSSR hit retest / multiconcentration testing: ATXN2-luc luciferase assay in H2 cells (1 and 10 μM)
Format: cell-based, human
condition parameters: 1 uM compound; luciferase assay, average of H2 and S1 cells (both ATXN2-luc); rescreen from plated libraries
Where a name gives a salt, the structure may show the parent alone.
Just the number, please, no unit after it.

Worked examples follow.
[[record]]
compound = "CCCCCCCCCOc1ccc2[nH]cc(CCN)c2c1 [5-Nonyloxytryptamine]"
obs_value = 111

[[record]]
compound = "COc1ccc(CCCOC(Cn2ccnc2)c2ccc(OC)cc2)cc1 (centres unmarked) [SKF-96365]"
obs_value = 104


Challenge: Please give the measured H2&S1 ave luc 1uM for this compound: COc1cccc(C2(O)CCCCC2CN(C)C)c1 (centres unmarked) [Tramadol]
Response given: 107

Challenge: Please give the measured H2&S1 ave luc 1uM for this compound: CO[C@H]1[C@@H](O)[C@@H](C)O[C@@H](O[C@H]2CC[C@]3(C)[C@H]4CC[C@]5(C)[C@@H](C6=CC(=O)OC6)CC[C@]5(O)[C@@H]4CC[C@]3(O)C2)[C@@H]1O [EMICYMARIN]
Response given: 115

Challenge: Please give the measured H2&S1 ave luc 1uM for this compound: CS(=O)(=O)Nc1ccc(Cc2noc(-c3ccc4[nH]cc(CCN)c4c3)n2)cc1 [L-694 247]
Response given: 110

Challenge: Please give the measured H2&S1 ave luc 1uM for this compound: [H]/N=C(/NCCCCC)N/N=C/c1c[nH]c2ccc(OC)cc12 [TEGASEROD MALEATE]
Response given: 105

Challenge: Please give the measured H2&S1 ave luc 1uM for this compound: CNC1CC(c2ccc(Cl)c(Cl)c2)c2ccccc21 (centres unmarked) [Indatraline]
Response given: 107

Challenge: Please give the measured H2&S1 ave luc 1uM for this compound: CC1=CC(=O)c2ccccc2C1=O [Menadione]
Response given: 115
